Data origin, for the record: ChEMBL document CHEMBL3414442

Kindly supply the reported IC50 values for the records listed here.
- Tested on: HeLa
- TEST_DESCRIPTION: Cytotoxicity against human HeLa cells after 48 hrs by MTT assay
- Assay type: functional, cell-based
A number alone suffices; assume µM.

Ask | Request: IC50, test system HeLa, entry COc1cc(C(=O)NC2CCN(C)CC2)ccc1Nc1ncc(F)c(NC2CCCC2)n1
Reply | 2.2

Ask | Request: IC50, test system HeLa, entry CN1CCC(NC(=O)c2ccc(Nc3ncc(F)c(NC4CCCC4)n3)cc2)CC1
Reply | 45.5

Ask | Request: IC50, test system HeLa, entry Fc1cnc(Nc2ccc(N3CCOCC3)cc2)nc1NC1CCCC1
Reply | 31.4

Ask | Request: IC50, test system HeLa, entry CCCNc1nc(Nc2ccc(N3CCOCC3)cc2)ncc1F
Reply | 7.3

Ask | Request: IC50, test system HeLa, entry COc1cc(C(=O)NC2CCN(C)CC2)ccc1Nc1ncc(Cl)c(NC2CCCC2)n1
Reply | 2.7

Ask | Request: IC50, test system HeLa, entry CN1CCC(NC(=O)c2ccc(Nc3ncc(Br)c(NC4CCCC4)n3)cc2)CC1
Reply | 0.9
